Cited source: PubChem BioAssay (NCI)

System: HOP-62 NSCLC
Experimental details: NCI-60 one-dose screen, 48 h
Particulars: 10 µM unless noted
Protocol: Growth inhibition of the HOP-62 human Non-Small Cell Lung tumor cell line is measured as a screen for anti-cancer activity. Cells are grown in 96 well plates and exposed to the test compound for 48 hours. Compounds are tested at a single concentration, which is 10^-5 M for most compounds. The reported endpoint is percent growth (GI% or GIPRCNT), where numbers from 0 - 100% represent growth inhibition, and numbers from -100% - 0 represent cell death. […]
Compounds without any hit were thinned out: in the full panel of roughly 83,000, 20% have a hit. Activity calls are given as the source filed them. Rule for the calls: active = growth percent below 10; inactive = the rest.
Reply using exactly one outcome from label 1 (active), label 0 (inactive)

Below, 6 molecules whose answers are already recorded.
Molecule | Discrete label
Cc1sc2nc3[nH]/c(=C\c4ccc(Cl)cc4)c(=O)n3c(=O)c2c1C | label 0
CCN(CC)Cc1cc(Nc2c3ccc(Cl)cc3nc3c(C)cccc23)ccc1O | label 1
COc1ccc2nc3cc(Cl)ccc3c(N3CCN(c4nccc(Nc5ccc(Cl)cc5)n4)CC3)c2c1 | label 0
O=C(O)c1ccc2c(c1Sc1ccccc1)C(=O)c1ccccc1C2=O | label 0
O=S(=O)(NCCCNc1cc(-c2cn(-c3ccccc3)nc2-c2ccccc2)ccn1)c1ccc(C(F)(F)F)cc1 | label 0
CCN(CC)c1ccc(CNc2cc(C)nc3ccc(OC)cc23)cc1 | label 0

Please examine the following record next.
Ask: I'd appreciate the recorded outcome for CC1CN(C(C)C)C(=S)N(c2ccccc2)C1=O (configuration not stated) from this test.
Result: label 0

###

Tested on: NCI-H322M lung
Experimental details: NCI-60 one-dose screen, 48 h (100 = growth as untreated, 0 = no growth, -100 = all killed)
Particulars: 10 µM unless noted
This is part of a sample that, as a whole, favours compounds with a hit. Of some 83,000 tested, about 20% had one in any assay.
Threshold-based label: growth under 80% gives yes (1), growth not under 80% gives no (0).

Compound | Discrete label
CN1CCN(Cc2ccc(NC(=O)c3cncc(C#Cc4cncc5nccnc45)c3)cc2C(F)(F)F)CC1 | yes (1)
CNC(=O)c1cc(Oc2ccc3nc(NC(=O)Nc4ccc(N5CCC(N(C)C)CC5)cc4)sc3c2)ccn1 | no (0)
O=c1cc(-c2ccccc2)[nH]c2ccccc12 | yes (1)
CC1=NNC(=O)C1C (stereo unspecified) | no (0)
CCOc1ccc(Nc2nc(-c3c(C)nc4ncccn34)cs2)cc1 | yes (1)
O=C1Nc2ccc(Br)cc2C12CC(c1ccccc1)=NN2 (stereo unspecified) | yes (1)
OCC1C2C=CC(C2)C1CO (stereo unspecified) | no (0)
O=C(Cc1ccccc1)c1ccc(Cl)cc1 | no (0)
COc1ncc(-c2ccc3ncnc(Nc4cccc(Cl)c4)c3c2)cc1NS(C)(=O)=O | yes (1)
O=C(N/N=C/c1ccc(O)cc1O)c1cccnc1 | yes (1)

Please examine the following record next.
Ask: Strictly below 80%: is that where growth of C=C1C(=O)O[C@H]2[C@H]1CC/C(Cn1cc(Cn3ccc4cc(Cl)ccc43)nn1)=C\CC[C@@]1(C)O[C@@H]21 sits?
Result: yes (1)

###

Test system: MOLT-4 leukemia
Experimental details: NCI-60 one-dose screen, 48 h (100 = growth as untreated, 0 = no growth, -100 = all killed)
Particulars: 10 µM unless noted
Experimental: Growth inhibition of the MOLT-4 human tumor cell line is measured as a screen for anti-cancer activity. Cells are grown in 96 well plates and exposed to the test compound for 48 hours. Compounds are tested at a single concentration, which is 10^-5 M for most compounds. The reported endpoint is percent growth (GI% or GIPRCNT), where numbers from 0 - 100% represent growth inhibition, and numbers from -100% - 0 represent cell death. For example, a value of 40 represents 60% growth inhibition. […]
About 83,000 compounds went through this panel and 20% of them were active in at least one assay; those are over-represented in the sample as a whole.
Readings of growth for the listed compounds
Numbers only; they are read as %.

Compound | growth [%]
CCCNc1nc(SC)nc(-c2cccc(N)c2)c1C#N | 101
COC1=CC(=O)C(OC)=C(OC)C1=O | -7.34
O=C(O)c1cccc2c1-c1ccccc1C2=O | 99.4
N=S(=O)(NC(=O)c1ccc(Cl)cc1Cl)c1ccc(Br)s1 (stereo unspecified) | 98.5
O=C(CCCN1CCOCC1)Nc1ccc(Cn2nnc3c2C(=O)c2nnn(Cc4ccc(NC(=O)CCCN5CCOCC5)cc4)c2C3=O)cc1 | -21.5

As a next step, examine the compound that follows.
Ask: Kindly state the measured growth obtained for CC(=O)Oc1ccc(Nc2c3ccccc3nc3ccccc23)cc1 with MOLT-4 leukemia.
Result: 1.46

###

Readings of growth for the listed compounds
Test system: RPMI-8226 leukemia
Experimental details: NCI-60 one-dose screen, 48 h (100 = growth as untreated, 0 = no growth, -100 = all killed)
Particulars: 10 µM unless noted
About 83,000 compounds went through this panel and 20% of them were active in at least one assay; those are over-represented in the sample as a whole. Activity calls are given as the source filed them. Rule for the calls: active = growth percent below 10; inactive = the rest.

# annotated cases, reported growth shown
Compound | Val
COc1ccc2[nH]c(=O)c(/C=C/C(=O)c3ccc(Nc4nccc(-c5ccc6ccccc6c5)n4)cc3)cc2c1 | 105% (inactive)
COc1ccc(/C=N\NC(=O)CN2CCN(c3cc4c(cc3F)c(=O)c(C(=O)N/N=C/c3ccc(OC)cc3)cn4C3CC3)CC2)cc1 | 69.4% (inactive)
CCCCNC(=O)NS(=O)(=O)c1ccc(N2N=C(c3cc(C)ccc3C)CC2c2cc(OC)c(OC)c(OC)c2)cc1 (stereo not given) | 28.3% (inactive)
c1ccc(-c2nc(N3CCOCC3)c3c4c(sc3n2)CCCCC4)nc1 | 35.5% (inactive)

Ask: Kindly state the measured growth obtained for C=C1CCC2C3(C)COC(c4cccc(Cl)c4)OC3CCC2(C)C1/C=C/C1=CCOC1=O (stereo not given) with RPMI-8226 leukemia.
Result: 51.8% (inactive)

###

System: RXF 393 renal
Experimental details: NCI-60 one-dose screen, 48 h
Particulars: 10 µM unless noted
About 83,000 compounds went through this panel and 20% of them were active in at least one assay; those are over-represented in the sample as a whole. Activity calls are given as the source filed them. The calls were made as follows: active = growth percent below 10; inactive = the rest.
Reply using exactly one outcome from active, inactive

Below, 3 compounds whose answers are already recorded.
Sample smiles | Discrete label
Cc1cc(-c2nc3ccccc3s2)ccc1NC(=O)COc1ccc(Cl)cc1 | inactive
CC(=O)O[C@H]1CC[C@]2(C)[C@H]3CC[C@@H]4[C@H]5[C@H](C(C)C)CC[C@]5(C(=O)OCC(CO)(CO)N=C(N)N)CC[C@@]4(C)[C@]3(C)CC[C@H]2C1(C)C | inactive
O=C1c2cc3c(cc2-c2c1c1cc(Cl)c(Cl)cc1c(=O)n2C[C@H](O)CO)OCO3 | active

Ask: I'd appreciate the recorded outcome for CCN(CC)c1ccc(/C=C/C2=[N+](C)c3ccccc3C2(C)C)cc1 from this test.
Result: inactive

###

Tested on: UACC-62 melanoma
Experimental details: NCI-60 one-dose screen, 48 h
Particulars: 10 µM unless noted
The panel holds about 83,000 compounds, 20% with a hit somewhere; the sample as a whole holds those more often. Activity calls are given as the source filed them. Rule for the calls: active = growth percent below 10; inactive = the rest.
Reply using exactly one outcome from active, inactive

Compound | Discrete label
O=C(O)c1c([N+](=O)[O-])cnc2ccccc12 | inactive
c1ccc2sc(SCCCn3ccnc3)nc2c1 | inactive
O=C1C(=O)N(CCCCn2cc(CO)nn2)c2ccccc21 | inactive
O=c1c(/C=C/c2ccco2)nnc(SCCN2CCOCC2)n1/N=C/c1ccc([N+](=O)[O-])cc1 | inactive

Ask: I'd appreciate the recorded outcome for Nc1cc2nc3ccccc3sc-2cc1=O from this test.
Result: inactive

Ask: I'd appreciate the recorded outcome for CCN1CCN(Cc2ccc(NC(=O)Nc3nc4ccc(Oc5ccnc(C(=O)NC)c5)cc4s3)cc2C(F)(F)F)CC1 from this test.
Result: active

Ask: I'd appreciate the recorded outcome for Cc1cc(=O)oc2cc(Oc3nc(-c4ccc(Cl)cc4)cn4c(-c5ccc(Cl)cc5)cnc34)ccc12 from this test.
Result: inactive

Ask: I'd appreciate the recorded outcome for O=C1CC(c2nc3ccccc3s2)CN1C1CCCCC1 (stereo unspecified) from this test.
Result: inactive

Ask: I'd appreciate the recorded outcome for O=C(CO[N+](=O)[O-])Nc1ccc(C(=O)/C=C/c2ccc(Cl)cc2)cc1 from this test.
Result: inactive

Ask: I'd appreciate the recorded outcome for COc1ccc(S(=O)(=O)NCCCNc2cc(-c3c(-c4cccc(OC)c4)nc4sccn34)ccn2)cc1 from this test.
Result: inactive

Ask: I'd appreciate the recorded outcome for COC(=O)[C@H](C(C)C)n1c(=O)c2cc(OC)c(OC)cc2c2cnc3[nH]ccc3c21 from this test.
Result: inactive

Ask: I'd appreciate the recorded outcome for COc1ccc(/C=N\NC(=O)c2ccncc2)cc1O from this test.
Result: inactive

Ask: I'd appreciate the recorded outcome for COc1ccc(/C=N\NC(=O)CN2CCN(c3cc4c(cc3F)c(=O)c(C(=O)N/N=C/c3ccc(OC)cc3)cn4C3CC3)CC2)cc1 from this test.
Result: inactive

Ask: I'd appreciate the recorded outcome for O=C1c2cccnc2C(=O)c2c1c(C(=O)OCCN1CCOCC1)c1ccccn21 from this test.
Result: active

Ask: I'd appreciate the recorded outcome for CCCCOc1ccc(NC(=O)n2nc(NC(C)=O)c3cc(NC(C)=O)ccc32)cc1 from this test.
Result: inactive

Ask: I'd appreciate the recorded outcome for COC(=O)[C@@H]1CC[C@]2(C)[C@H](CC[C@@H]3O[C@@]32C)[C@@]1(C)CC(=O)c1ccoc1 from this test.
Result: inactive

Ask: I'd appreciate the recorded outcome for Brc1cccc(-c2cc(-c3ccc4c(c3)OCCO4)[nH]n2)c1 from this test.
Result: inactive

Ask: I'd appreciate the recorded outcome for CCCCCCCCCC(=O)Oc1ccc(/C(=C(/C)Cc2cccc(OC)c2)c2ccc(OCCN(C)C)cc2)cc1 from this test.
Result: inactive

Ask: I'd appreciate the recorded outcome for CCc1ccccc1NC(=O)c1sc2nc3c(cc2c1N)C(=O)CCC3 from this test.
Result: inactive

Ask: I'd appreciate the recorded outcome for Cc1noc(C)c1-c1cc(O)cc(C(O)c2ccccc2)c1 (stereo unspecified) from this test.
Result: inactive

Ask: I'd appreciate the recorded outcome for O=C1C(Cl)=C(Cl)C(=O)c2c1nc1n2CCCC1 from this test.
Result: inactive

Ask: I'd appreciate the recorded outcome for COc1ccccc1N1CCN(CCn2c(=O)c3c(c4ccccc4n3C)n(C)c2=O)CC1 from this test.
Result: inactive

Ask: I'd appreciate the recorded outcome for Cc1sc2nc3[nH]/c(=C\c4ccc(Cl)cc4)c(=O)n3c(=O)c2c1C from this test.
Result: inactive

Ask: I'd appreciate the recorded outcome for N#Cc1c2c(nc3n[nH]c(N)c13)CCCC2 from this test.
Result: inactive

Ask: I'd appreciate the recorded outcome for Cc1nn(-c2nc3ccccc3[nH]2)c2c1C(c1ccc3c(c1)OCO3)CC(=O)N2 (stereo unspecified) from this test.
Result: inactive

Ask: I'd appreciate the recorded outcome for O=C1C=CC(=O)N1c1ccc(Cc2ccc(N3C(=O)C=CC3=O)cc2)cc1 from this test.
Result: inactive

Ask: I'd appreciate the recorded outcome for Nc1nc2c(c3ncccc13)C(c1ccc(Cl)c(Cl)c1)Cc1ncccc1-2 (stereo unspecified) from this test.
Result: inactive
